# Method Notes: qHTS screen for small molecules that induce genotoxicity in human embryonic kidney (HEK293T) cells expressing luciferase-tagged ELG1; also: nearly all actives have a fitted effect of over 60% in size
# Particulars: HEK293T ELG1-luciferase reporter, luminescence, 16 h; series mostly up to 46 µM
In all, about 330,000 compounds went through this assay and about 4,200 (1.3%) were called active. Roughly 6% stayed inconclusive and do not appear here. Calls follow the shape of the dose curve; as a rule, active = well fitted activation curve with a large enough effect; inconclusive = small, poorly fitted or top-dose-only effect; inactive = no such curve, though single readings can be large or run the other way. The sample as a whole holds a higher share of actives than the screen did.
Outcomes: 1 = active, 0 = inactive

Smiles Str: CCCCSc1nnc(-c2ccc(C)cc2)o1
Category Label: 1
//
Smiles Str: CCOC(=O)CSc1nnc(-c2ccc([N+](=O)[O-])cc2)o1
Category Label: 0
//
Smiles Str: Cc1noc(C)c1S(=O)(=O)N(C)C[C@H]1Oc2c(NC(=O)Nc3ccc4c(c3)OCO4)cccc2C(=O)N([C@H](C)CO)C[C@@H]1C
Category Label: 0
//
Smiles Str: O=C(COC(=O)c1ccccc1C(=O)c1ccccc1)c1ccco1
Category Label: 0
//
Smiles Str: CC(=O)c1cccc(OCC(=O)OCC(=O)Nc2cc(S(=O)(=O)N3CCCCC3)ccc2C)c1
Category Label: 0
//
Smiles Str: O=C(NCCC1=CCCCC1)C1CCN(Cc2cnn(-c3ccccc3)c2-n2cccc2)CC1
Category Label: 0
//
Smiles Str: C1=C(CCNc2ncnc3c2cnn3-c2ccccc2)CCCC1
Category Label: 1
//
Smiles Str: O=C(NNc1ncnc2c1cnn2-c1ccccc1)c1ccco1
Category Label: 0
//
Smiles Str: CC1(C)Cc2ccccc2/C(=C/C(=O)c2ccccc2)N1
Category Label: 0
//
Smiles Str: CC(C)N(C(=O)[C@H]1C[C@H](CC(=O)NC(C)(C)C)C(=O)N2CCc3c([nH]c4ccc(Cl)cc34)[C@]12C)C(C)C
Category Label: 0

###

# Method Notes: qHTS screen for small molecules that induce genotoxicity in human embryonic kidney (HEK293T) cells expressing luciferase-tagged ELG1; also: nearly all actives have a fitted effect of over 60% in size
# Particulars: HEK293T ELG1-luciferase reporter, luminescence, 16 h; series mostly up to 46 µM
Out of some 330,000 compounds screened, about 4,200 (1.3%) were called active. Not shown: some 6% with an inconclusive outcome. Calls come from the whole dose curve; as a rule, active = well fitted activation curve with a large enough effect; inconclusive = small, poorly fitted or top-dose-only effect; inactive = no such curve, though single readings can be large or run the other way. Shown is part of a subset that was picked to be rich in actives.
Outcomes: 1.0 for active, 0.0 for inactive

Smiles Str: C/C(=N\NC(=O)Cc1ccc(Cl)cc1)c1ccccn1
Category Label: 1.0

Smiles Str: CN1C(=O)c2cccc3c(N)ccc(c23)C1=O
Category Label: 0.0

Smiles Str: COc1cc(NC(=O)COC(=O)c2cc(S(=O)(=O)N3CCOCC3)ccc2F)cc(OC)c1
Category Label: 0.0

Smiles Str: C/C(=N\NC(=O)c1ccccc1F)c1ccccn1
Category Label: 1.0

Smiles Str: COc1cc(/C=C/C(=O)OCC(=O)c2ccccc2)cc(OC)c1OC
Category Label: 0.0

Smiles Str: COc1ccc(-c2nc(-c3ccccc3)no2)c(OC)c1
Category Label: 1.0

Smiles Str: Cc1cccc(NC(=O)CN2C(=O)c3ccccc3C2=O)c1C
Category Label: 0.0

Smiles Str: Cc1nc2ccc(NC(=O)c3cccc(S(=O)(=O)N4CCOCC4)c3)cc2s1
Category Label: 0.0

Smiles Str: CC(C)(C)C(=O)Nc1ccc(-c2cn3cccnc3n2)cc1
Category Label: 1.0

Smiles Str: C/C(=N\NC(=O)Cc1ccc(Br)cc1)c1cccnc1
Category Label: 0.0

Smiles Str: O=C(CN1C(=O)c2cccc3cccc1c23)Nc1ccccc1
Category Label: 0.0

###

# Method Notes: qHTS screen for small molecules that induce genotoxicity in human embryonic kidney (HEK293T) cells expressing luciferase-tagged ELG1; also: nearly all actives have a fitted effect of over 60% in size
# Particulars: HEK293T ELG1-luciferase reporter, luminescence, 16 h; series mostly up to 46 µM
Screen size: about 330,000 compounds; about 4,200 (1.3%) were called active. Not shown: some 6% with an inconclusive outcome. Calls follow the shape of the dose curve; as a rule, active = well fitted activation curve with a large enough effect; inconclusive = small, poorly fitted or top-dose-only effect; inactive = no such curve, though single readings can be large or run the other way. The sample as a whole holds a higher share of actives than the screen did.
Outcomes: TRUE = active, FALSE = inactive

Compound: CCOc1cccc(C(=O)Nc2cnn(Cc3ccccc3)c2)c1
Category Label: FALSE
--
Compound: CC(C)c1nc2cc(C(=O)NC(C)c3cnn(C)c3)ccc2o1 (stereo not given)
Category Label: FALSE
--
Compound: Cc1ccc(C(=O)NCC(=O)NC2CC2)cc1
Category Label: FALSE
--
Compound: CC(C)NC(=O)Nc1cccc2c1O[C@H](CN(C)S(=O)(=O)c1cccs1)[C@@H](C)CN([C@H](C)CO)C2=O
Category Label: FALSE
--
Compound: Cc1ccc(C(=O)Nc2nnc(-c3cccs3)s2)cc1C
Category Label: TRUE
--
Compound: COc1cc(OC)cc(C(=O)N[C@H](C(=O)NNC(=O)c2ccc(Br)cc2)C(C)C)c1
Category Label: FALSE
--
Compound: C#CCOCCOCCOCCNc1nc(N2CCN(C(=O)[C@H](CCC(=O)O)n3cc(CN)nn3)CC2)nc(N2CCN(C(=O)[C@H](CCC(=O)O)n3cc(CN)nn3)CC2)n1
Category Label: FALSE
--
Compound: Cc1ccc(SCCC(=O)Nc2cc(C)on2)cc1
Category Label: FALSE
--
Compound: C[C@H]1CN([C@@H](C)CO)C(=O)Cc2cc(NC(=O)Cc3ccccc3)ccc2O[C@H]1CN(C)S(=O)(=O)c1cccs1
Category Label: FALSE
--
Compound: Cc1ccc(C(=O)Oc2coc(CSc3nnc(NC(=O)c4cccs4)s3)cc2=O)cc1C
Category Label: FALSE
--
Compound: CC(C)n1cnc2c(NCc3ccccc3)cc(N[C@@H](CO)Cc3ccccc3)cc21
Category Label: FALSE
--
Compound: O=C(CNC(=O)c1ccccc1F)c1ccc(Br)cc1
Category Label: TRUE
--
Compound: O=C(Nc1cccc(S(=O)(=O)N2CCCC2)c1)c1cncc(Br)c1
Category Label: FALSE
--
Compound: COc1cccc(C(=O)Nc2nnc(S(=O)(=O)N(C)c3ccccc3)s2)c1
Category Label: FALSE
--
Compound: COC(=O)[C@]1(Cc2ccccc2)N[C@H](CN(C)S(=O)(=O)c2ccc(F)cc2)[C@@H]2C(=O)N(Cc3ccccc3)C(=O)[C@@H]21
Category Label: FALSE
--
Compound: COCCN(CCOC)S(=O)(=O)NC[C@H]1O[C@@H](n2cnc3c(N)ncnc32)[C@H](O)[C@@H]1O
Category Label: FALSE
--
Compound: COc1ccc(S(=O)(=O)N2CCCCCC2)cc1NC(=O)Cc1ccc(OC)c(OC)c1
Category Label: FALSE
--
Compound: CCOc1ccc2nc(C(=O)N3CCCC(C)C3)sc2c1 (stereo not given)
Category Label: TRUE
--
Compound: C[C@H](CO)N1C[C@H](C)[C@@H](CN(C)C(=O)Nc2ccc3c(c2)OCO3)Oc2c(cccc2N(C)C)C1=O
Category Label: FALSE
--
Compound: O=C(COC(=O)CNC(=O)c1ccccc1F)NCC(F)(F)F
Category Label: FALSE
--
Compound: O=C(COc1ccccc1F)Nc1nc(-c2ccccn2)cs1
Category Label: FALSE
--
Compound: O=C(NC(=S)Nc1ccc(Br)cc1F)C1CCCCC1
Category Label: FALSE
--
Compound: Cc1nnc(NC(=O)c2ccc3nccnc3c2)s1
Category Label: FALSE
--
Compound: C[C@H](CO)N1C[C@H](C)[C@H](CN(C)C(=O)Nc2ccc(C(F)(F)F)cc2)Oc2c(NC(=O)c3ccncc3)cccc2C1=O
Category Label: FALSE
--
Compound: O=C(Nn1cnc2ccccc2c1=O)c1ccccc1
Category Label: FALSE
--
Compound: CCn1nnc2cc(C(=O)Nc3ccc(C(=O)OC(C)C)cc3)ccc21
Category Label: FALSE
--
Compound: COc1ccc(-c2csc(NC(=O)COC(=O)Cc3ccc(Cl)cc3Cl)n2)cc1
Category Label: TRUE
--
Compound: COc1ccc2nc3n(c(=O)c2c1)-c1cc(C)ccc1C(=O)NC3Cc1ccc(O)cc1 (stereo not given)
Category Label: FALSE
--
Compound: O=C(CNC(=O)c1ccccc1)NCC(=O)OCC(=O)c1ccccc1
Category Label: FALSE
--
Compound: Cc1ccccc1CC1(CO)CCCN(C(=O)c2cc(-c3ccccc3)no2)C1 (stereo not given)
Category Label: FALSE
--
Compound: COC(=O)c1ccc(CSc2nc3cc(Cl)ccc3o2)cc1
Category Label: FALSE
--
Compound: Cc1ccc2nc(-c3ccc(SCC(=O)Nc4cc(C)on4)nc3)[nH]c2c1
Category Label: TRUE
--
Compound: O=C(O)c1ccccc1C(=O)Nc1nc(-c2ccccc2)cs1
Category Label: FALSE
--
Compound: C=CCC[C@H](Cc1ccc(F)cc1)C(=O)OC[C@@H](Cc1c[nH]c2ccccc12)NC(=O)[C@H](CC=C)CC(=O)N[C@H](CO)Cc1ccccc1
Category Label: FALSE
--
Compound: O=C(CNC(=O)c1ccc(F)cc1)c1ccccc1
Category Label: TRUE
--
Compound: CC1CCCCC12NC(=O)N(CC(=O)N1CCN(c3ccccc3)CC1)C2=O (stereo not given)
Category Label: FALSE
--
Compound: COc1ccc(OC)c(-c2csc(NC(=O)COC(=O)C3CC3)n2)c1
Category Label: FALSE
--
Compound: Cn1cncc1C#Cc1c(-c2ccsc2)sc2ccccc12
Category Label: FALSE
--
Compound: CC(Oc1ccc2c(-c3ccccc3)cc(=O)oc2c1)C(=O)NC(Cc1c[nH]c2ccccc12)C(=O)O (stereo not given)
Category Label: FALSE
--
Compound: Cc1cccc(C)c1Nc1nnc(SCC(=O)NCCCN2CCCC2=O)s1
Category Label: FALSE

Source listed as PubChem BioAssay AID504466.
